# TARGET DESC: T1, human PTH/PTHrP receptor (PTH1 receptor) (human, UniProt Q03431 27-593)
# T1 sequence (looked up): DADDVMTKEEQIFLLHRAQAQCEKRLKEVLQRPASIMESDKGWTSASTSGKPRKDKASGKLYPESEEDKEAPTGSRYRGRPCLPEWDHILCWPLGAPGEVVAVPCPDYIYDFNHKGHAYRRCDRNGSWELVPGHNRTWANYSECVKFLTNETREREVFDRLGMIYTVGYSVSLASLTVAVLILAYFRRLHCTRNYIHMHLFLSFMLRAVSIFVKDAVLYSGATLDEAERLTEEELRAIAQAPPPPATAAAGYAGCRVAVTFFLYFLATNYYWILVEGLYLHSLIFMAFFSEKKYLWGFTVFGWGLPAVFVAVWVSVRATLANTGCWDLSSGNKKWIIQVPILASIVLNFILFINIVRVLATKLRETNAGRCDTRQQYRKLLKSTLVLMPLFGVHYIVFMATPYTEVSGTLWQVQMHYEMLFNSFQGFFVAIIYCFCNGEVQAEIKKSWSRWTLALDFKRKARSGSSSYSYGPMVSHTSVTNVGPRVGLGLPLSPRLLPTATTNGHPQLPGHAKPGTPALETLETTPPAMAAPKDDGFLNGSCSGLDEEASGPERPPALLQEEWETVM
# TEST: cell-based or functional assay
Non-standard residues stand in square brackets, D forms with d. No end group written: not given here. Nle = CCCC[C@H](N)C(=O)O
# Adenylate cyclase (EC50), kidney membranes (human RCM) values compiled below
MEASURE: Adenylate cyclase (EC50), kidney membranes (human RCM)

BINDER | MEASURED
AVSEIQLMHNLGKHLASVERMQWLRKKLQDVHNF (peptide, UniProt P04089 32-65, looked up, range 1-34; Synthetic, Bachem; also called rPTH-(1-34); rat (r)PTH-(1-34)) [rat PTH-(1-34)] | 0.05 nM
bPTH-(1-84) (ligand, bovine, UniProt P01268 32-115, looked up, range 1-84; From the National Hormone and Pituitary Program (NIDDK); also called bovine PTH-(1-84)) AVSEIQFMHNLGKHLSSMERVEWLRKKLQDVHNFVALGASIAYRDGSSQRPRKKEDNVLVESHQKSLGEADKADVDVLIKAKPQ | 0.59 nM
SVSEIQL[Nle]HNLGKHLNS[Nle]ERVEWLRKKLQDVHNY [(Nle^8,18, Tyr^34)hPTH-(1-34)] | 1.1 nM
SVSEMQLMHNLGEHRHTVERQDWLQMKLQDVHSA-NH2 (peptide, UniProt P15743 32-65, looked up, range 1-34; Solid phase synthesis; also called cPTH-(1-34)NH2) [Chicken PTH-(1-34)amide] | 5.4 nM
